Please provide measured pEC50 for the entries that follow.
tested on: Human immunodeficiency virus; experiment: Effective concentration required for antiviral activity against HIV strain G by XTT assay; type: functional, organism-based; conditions: Human immunodeficiency virus 1
Answers are plain numbers, as −log10 of the molar value.

| molecule | studyTarget | readout | value |
| --- | --- | --- | --- |
| Cc1cn([C@H]2C[C@H](N=[N+]=[N-])[C@@H](CO)O2)c(=O)[nH]c1=O | Human immunodeficiency virus | pEC50 | 8.70 |

Next up:
State recorded pEC50 with Human immunodeficiency virus, entry CC(C)CCCC(C)[C@H]1CC[C@H]2[C@@H]3CCC4C[C@@H](CCC=C(c5cc(Cl)c(O)c(C(=O)O)c5)c5cc(Cl)c(O)c(C(=O)O)c5)CC[C@]4(C)[C@H]3CC[C@]12C (some centres not stated) , no comment.
5.66
